Each entry below carries its reported z-score.
# Assay method text: change in splice reporter luminescence, either direction, cell-based, HEK293, spliceosome inhibition project, primary screen (AID 1101);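 note: HEK293 cells carrying a splicing-competent luciferase reporter gene; test concentration not given here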
# Measurement context: HEK293 splicing luciferase reporter, 24 h, higher = more signal, called active from +8 up or from −8 down
Hey, just send me the number, nothing else.

Field z-score (entry "COc1ccc([Si](C)(C)[C@@H]2[C@@H](CC(=O)N3Cc4ccccc4C[C@H]3CO)O[C@]3(C(=O)N(Cc4cccc(N5CCCCC5=O)c4)c4ccccc43)[C@H]2C)cc1" ) reads -1.46

The compound identified as "CC(C)CN1C(=O)[C@@]2(Cc3ccccc31)c1ccccc1C(=O)N(Cc1ccccc1)[C@H]2c1ccc(CO)cc1" registered its z-score at -0.489

z-score reading for "CCCC[C@@H](O)C1=C(COc2ccccc2)Cn2c(=O)n(-c3ccccc3)c(=O)n2[C@H]1CO" : -2.11

***
// "C[C@H]1ON(c2ccccc2)[C@@H](c2ccccc2)[C@@H]1C(=O)N1C(=O)OC[C@@H]1c1ccccc1" : z-score value = 0.216

Measured z-score of O=C1C2C=CC(C(O)c3ccc(Br)cc3)N(Nc3ccccc3)C2C(=O)N1c1ccccc1 (configuration not stated) : 1.34

Noted for "NC(=O)NCC#Cc1ccc2c(c1)[C@]1(C(=O)N2)[C@H](c2ccc(OCCO)cc2)N2[C@H](c3ccccc3)[C@H](c3ccccc3)OC(=O)[C@H]2[C@@H]1C(=O)N1CCCCCCC1" : its z-score reads 0.238

What the record says about "CCCN1C(=O)[C@@H]2Cc3c([nH]c4ccccc34)[C@@H](c3cccc(O)c3)N2C1=O" : z-score is 1.08
